- ASSAY EXPLANATION: Phase 1 single-rising dose (SRD, Part 1) plasma PK in healthy subjects
- Format: in vivo, human
- RECORDED CONDITIONS: both sexes, human, plasma, po, 1 mg, single oral 1 mg; median, N = 6; read-out: tmax
PARAMETER MEASURED: Tmax (h)
Unit h implied. Number only.

Ask | Answer with reported Tmax of `CC1=CN2CCS(=O)(=O)N=C2C(c2ccc(OC3CCCCC3)cc2)=N1`
Reply | 2.5

###

- ASSAY EXPLANATION: Phase 1 SRD/multiple-rising dose (MRD, Part 2) plasma PK in healthy subjects
- Assay type: in vivo, human
- RECORDED CONDITIONS: both sexes, human, plasma, oral, 9 mg, 9 mg QD, Study Day 6; median; read-out: tmax
PARAMETER MEASURED: Tmax
Entry format: amount then unit.

Ask | Answer with reported Tmax of `CC1=CN2CCS(=O)(=O)N=C2C(c2ccc(OC3CCCCC3)cc2)=N1`
Reply | 4 h

###

- ASSAY EXPLANATION: 13-week NHP GLP toxicity study: clinical signs, EEG/EMG telemetry, pathology
- Assay type: in vivo, Monkey (Macaca fascicularis)
- RECORDED CONDITIONS: female, cynomolgus monkey, in vivo; females, oral gavage once daily, 13 weeks; read-out: no-observed-adverse-effect level (NOAEL)
PARAMETER MEASURED: NOAEL at 13 weeks (mg/kg/day)
Unit mg/kg/day implied. Number only.

Ask | Answer with reported NOAEL at 13 weeks of `CC1=CN2CCS(=O)(=O)N=C2C(c2ccc(OC3CCCCC3)cc2)=N1`
Reply | 3

###

- ASSAY EXPLANATION: 14-day rat neurotoxicology study: toxicokinetics
- Format: in vivo, Sprague-Dawley rats
- RECORDED CONDITIONS: male, Sprague-Dawley, rat, plasma, po, 100 mg/kg/day, 100 mg/kg/day oral, male, Day 14
PARAMETER MEASURED: Cmax (ng/mL)
Unit ng/mL implied. Number only.

Ask | Answer with reported Cmax of `CC1=CN2CCS(=O)(=O)N=C2C(c2ccc(OC3CCCCC3)cc2)=N1`
Reply | 1290

###

- ASSAY EXPLANATION: Phase 1 SRD/multiple-rising dose (MRD, Part 2) plasma PK in healthy subjects
- Format: in vivo, human
- RECORDED CONDITIONS: both sexes, human, plasma, oral, 6 mg, 6 mg QD, Study Day 18; mean, n = 5; read-out: Cmax, ss
- Protocol: The study was designed to assess the safety, tolerability, PK, and PD of COMPOUND A. A total of 88 subjects were enrolled in 6 SRD and 5 SRD/MRD cohorts (n=8 per cohort). The study was composed of 2 parts. […] Referring now to FIG. 3, mean plasma concentration-time profiles (linear and semilog scales) of COMPOUND A were determined on Day 18 following oral administration of COMPOUND A QD for 13 days.
PARAMETER MEASURED: Cmax (ng/mL)
Unit ng/mL implied. Number only.

Ask | Answer with reported Cmax of `CC1=CN2CCS(=O)(=O)N=C2C(c2ccc(OC3CCCCC3)cc2)=N1`
Reply | 148

###

- ASSAY EXPLANATION: Phase 1 single-rising dose (SRD, Part 1) plasma PK in healthy subjects
- Format: in vivo, human
- RECORDED CONDITIONS: both sexes, human, plasma, po, 9 mg, single oral 9 mg; median, N = 6; read-out: tmax
- Protocol: The study was designed to assess the safety, tolerability, PK, and PD of COMPOUND A. A total of 88 subjects were enrolled in 6 SRD and 5 SRD/MRD cohorts (n=8 per cohort). The study was composed of 2 parts. […] Referring now to FIG. 2, mean plasma concentration-time profiles (linear and semilog scales) of COMPOUND A were determined following single oral administration of COMPOUND A.
PARAMETER MEASURED: Tmax (h)
Unit h implied. Number only.

Ask | Answer with reported Tmax of `CC1=CN2CCS(=O)(=O)N=C2C(c2ccc(OC3CCCCC3)cc2)=N1`
Reply | 5.5
